AC50 overview
biological target: Thromboxane A2 receptor (Homo sapiens, UniProt P21731); format: functional, cell-based; also: assay procedure not described here
Sequence (P21731 whole entry): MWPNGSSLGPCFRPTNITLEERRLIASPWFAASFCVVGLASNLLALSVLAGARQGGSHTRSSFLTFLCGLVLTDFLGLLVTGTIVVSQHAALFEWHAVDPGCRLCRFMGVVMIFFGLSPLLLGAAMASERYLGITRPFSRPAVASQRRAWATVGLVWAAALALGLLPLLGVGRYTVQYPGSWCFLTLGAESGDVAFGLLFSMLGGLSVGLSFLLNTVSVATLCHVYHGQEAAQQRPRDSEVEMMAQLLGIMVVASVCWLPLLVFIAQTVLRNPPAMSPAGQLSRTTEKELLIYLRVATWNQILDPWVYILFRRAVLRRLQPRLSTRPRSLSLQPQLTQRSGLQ

C#Cc1cccc(Nc2ncnc3cc(OCCOC)c(OCCOC)cc23)c1 :: > 30 µM
CC(=N)N1CC[C@H](SC2=C(C(=O)O)N3C(=O)[C@H]([C@@H](C)O)[C@H]3C2)C1 :: > 300 µM
CCCN(CCC)CCc1cccc2c1CC(=O)N2 :: > 30 µM
CCCN(CCc1cccs1)[C@H]1CCc2c(O)cccc2C1 :: > 30 µM
C[C@H]1Oc2cc(cnc2N)-c2c(nn(C)c2C#N)CN(C)C(=O)c2ccc(F)cc21 :: > 30 µM

Alright, here's another compound for you.
Return reported AC50; argument: O=C1NC(=O)C(c2ccccc2)(c2ccccc2)N1
> 30 µM
